Biological target: UniProtKB Q9NR97
Assay: TLR8 inhibition reporter assay (HEK-Blue cells, SEAP reporter, R848 stimulation)
Settings: HEK-Blue cells overexpressing human TLR8, SEAP reporter, R848 15.9 μM
Description: TLR7/8/9 Inhibition Reporter Assays HEK-Blue™-cells (Invivogen) overexpressing human TLR7, TLR8 or TLR9 receptors were used for screening inhibitors of these receptors using an inducible SEAP (secreted embryonic alkaline phosphatase) reporter gene under the control of the IFN-β minimal promoter fused to five NF-κB and AP-1-binding sites. […]
ASSAY ENDPOINT: log10(IC50) (log10 of the value in nM)
log10 IC50, nM

Cc1cc(-c2[nH]c3ccc(C4CCC(C(=O)N5CCN(C)CC5)CC4)cc3c2C(C)C)cn2ncnc12 (single isomer, unassigned) [Example 157] | 0.40
COc1cc(-c2[nH]c3ccc(C4CCC(C)(NC(=O)CN(C)C)CC4)cc3c2C(C)C)cn2ncnc12 (stereo not shown) | 1.08
Cc1cc(-c2[nH]c3ccc(C4CCC(C(=O)NC5CCN(C(C)C)CC5)CC4)cc3c2C(C)C)cn2ncnc12 (stereo not shown) | 0.51
COCC(=O)N1CCCC(c2ccc3[nH]c(-c4cc(C)nc(C)c4)c(C(C)C)c3c2)C1 (stereo not shown) | 2.60
Cc1c(-c2[nH]c3ccc(C4CCC(N(C)CCS(C)(=O)=O)CC4)cc3c2C(C)C)cn2ncnc2c1C (stereo not shown) | -0.43

Please go through the list and note log10(IC50) for each molecule.
1. COc1cc(-c2[nH]c3ccc(C4CCC(N5CC(F)(F)C5)CC4)cc3c2C(C)C)cn2ncnc12 (stereo not shown) [Example 19]
2. Cc1cc(-c2[nH]c3ccc(C4CCCN(CC(=O)N(C)C)C4)cc3c2C(C)C)cc(C)n1 (stereo not shown) [Example 233]

1: 2.34; 2: 1.75

* * *

biological target: human TLR8 (Homo sapiens); test: TLR8 inhibition reporter assay (HEK-Blue cells, SEAP reporter, R848 stimulation); conditions: HEK-Blue cells overexpressing human TLR8, SEAP reporter, R848 15.9 μM
Sequence (Q9NR97 27-1041): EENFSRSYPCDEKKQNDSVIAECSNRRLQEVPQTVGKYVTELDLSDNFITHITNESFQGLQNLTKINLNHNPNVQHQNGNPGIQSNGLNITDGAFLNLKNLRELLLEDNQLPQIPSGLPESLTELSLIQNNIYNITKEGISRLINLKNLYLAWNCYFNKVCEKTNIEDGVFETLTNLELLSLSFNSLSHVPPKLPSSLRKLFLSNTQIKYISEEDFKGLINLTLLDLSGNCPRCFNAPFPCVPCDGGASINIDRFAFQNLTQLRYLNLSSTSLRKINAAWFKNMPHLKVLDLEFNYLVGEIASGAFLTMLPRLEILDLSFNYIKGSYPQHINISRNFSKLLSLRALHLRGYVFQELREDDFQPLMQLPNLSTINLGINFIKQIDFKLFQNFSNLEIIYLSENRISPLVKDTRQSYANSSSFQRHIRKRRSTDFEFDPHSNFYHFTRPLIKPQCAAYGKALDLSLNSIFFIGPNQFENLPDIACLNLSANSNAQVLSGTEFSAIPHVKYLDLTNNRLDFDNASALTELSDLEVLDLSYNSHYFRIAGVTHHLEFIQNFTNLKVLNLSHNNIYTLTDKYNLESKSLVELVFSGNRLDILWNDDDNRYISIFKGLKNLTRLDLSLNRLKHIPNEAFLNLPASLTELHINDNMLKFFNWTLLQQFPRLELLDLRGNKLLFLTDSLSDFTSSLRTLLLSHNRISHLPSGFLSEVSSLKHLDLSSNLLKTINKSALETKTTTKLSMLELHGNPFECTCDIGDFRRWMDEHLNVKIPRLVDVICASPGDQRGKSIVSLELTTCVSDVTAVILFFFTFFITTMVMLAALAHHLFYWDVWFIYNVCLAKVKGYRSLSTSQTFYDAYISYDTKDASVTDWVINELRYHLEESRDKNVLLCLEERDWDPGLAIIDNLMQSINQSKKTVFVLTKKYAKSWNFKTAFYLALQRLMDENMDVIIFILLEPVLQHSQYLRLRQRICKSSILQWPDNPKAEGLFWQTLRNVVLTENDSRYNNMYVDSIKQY
Kindly supply the reported log10(IC50) values for the records listed here.
log10 IC50, nM

Cc1c(-c2[nH]c3ccc(C4CC(NC(=O)CN(C)C)C4)cc3c2C(C)C)cn2ncnc2c1C (centres unmarked) [Example 578] | -0.21
COc1cc(-c2[nH]c3ccc(C4CCCN(C(C)C)C4)cc3c2C(C)C)cn2ncnc12 (centres unmarked) [Example 236] | -0.34
Cc1c(-c2[nH]c3ccc(C4CN(C(=O)CN(C)C)CCO4)cc3c2C(C)C)cn2ncnc2c1C (centres unmarked) [Example 329] | 0.53

Please go through the list and note log10(IC50) for each molecule.
1. CCc1c(-c2ccnc(C)c2)[nH]c2ccc(CNC(=O)C3CC4(CCNCC4)C3)cc12
2. COc1cc(-c2[nH]c3ccc(C4CCC(NCC(=O)NC5COC5)CC4)cc3c2C(C)C)cn2ncnc12 (centres unmarked) [Example 165]
3. CCN(CC)CC(=O)NC1CCC(c2ccc3[nH]c(-c4cn5ncnc5c(C)c4C)c(C(C)C)c3c2)CC1 (centres unmarked) [Example 126]
4. CCc1c(-c2ccnc(C)c2)[nH]c2ccc(CNC(=O)CCC3CCNCC3)cc12
5. Cc1cc(-c2[nH]c3ccc(C4CN(CC5(C)COC5)CCO4)cc3c2C(C)C)cn2ncnc12 (centres unmarked) [Example 291]

1: 1.15; 2: 0.23; 3: 0.36; 4: 3.97; 5: 1.41

The reported numbers originate from patent US11878975B2.
